target.desc: recombinant human ACC2 (Homo sapiens)
Construct: a cDNA encoding human ACC2 (27-2458) was cloned from human kidney cDNA library (Clontech); His-tag (N); made in house; host or cells: Sf-9 insect cells (Bac-to-Bac baculovirus)
Sequence (O00763 27-2458): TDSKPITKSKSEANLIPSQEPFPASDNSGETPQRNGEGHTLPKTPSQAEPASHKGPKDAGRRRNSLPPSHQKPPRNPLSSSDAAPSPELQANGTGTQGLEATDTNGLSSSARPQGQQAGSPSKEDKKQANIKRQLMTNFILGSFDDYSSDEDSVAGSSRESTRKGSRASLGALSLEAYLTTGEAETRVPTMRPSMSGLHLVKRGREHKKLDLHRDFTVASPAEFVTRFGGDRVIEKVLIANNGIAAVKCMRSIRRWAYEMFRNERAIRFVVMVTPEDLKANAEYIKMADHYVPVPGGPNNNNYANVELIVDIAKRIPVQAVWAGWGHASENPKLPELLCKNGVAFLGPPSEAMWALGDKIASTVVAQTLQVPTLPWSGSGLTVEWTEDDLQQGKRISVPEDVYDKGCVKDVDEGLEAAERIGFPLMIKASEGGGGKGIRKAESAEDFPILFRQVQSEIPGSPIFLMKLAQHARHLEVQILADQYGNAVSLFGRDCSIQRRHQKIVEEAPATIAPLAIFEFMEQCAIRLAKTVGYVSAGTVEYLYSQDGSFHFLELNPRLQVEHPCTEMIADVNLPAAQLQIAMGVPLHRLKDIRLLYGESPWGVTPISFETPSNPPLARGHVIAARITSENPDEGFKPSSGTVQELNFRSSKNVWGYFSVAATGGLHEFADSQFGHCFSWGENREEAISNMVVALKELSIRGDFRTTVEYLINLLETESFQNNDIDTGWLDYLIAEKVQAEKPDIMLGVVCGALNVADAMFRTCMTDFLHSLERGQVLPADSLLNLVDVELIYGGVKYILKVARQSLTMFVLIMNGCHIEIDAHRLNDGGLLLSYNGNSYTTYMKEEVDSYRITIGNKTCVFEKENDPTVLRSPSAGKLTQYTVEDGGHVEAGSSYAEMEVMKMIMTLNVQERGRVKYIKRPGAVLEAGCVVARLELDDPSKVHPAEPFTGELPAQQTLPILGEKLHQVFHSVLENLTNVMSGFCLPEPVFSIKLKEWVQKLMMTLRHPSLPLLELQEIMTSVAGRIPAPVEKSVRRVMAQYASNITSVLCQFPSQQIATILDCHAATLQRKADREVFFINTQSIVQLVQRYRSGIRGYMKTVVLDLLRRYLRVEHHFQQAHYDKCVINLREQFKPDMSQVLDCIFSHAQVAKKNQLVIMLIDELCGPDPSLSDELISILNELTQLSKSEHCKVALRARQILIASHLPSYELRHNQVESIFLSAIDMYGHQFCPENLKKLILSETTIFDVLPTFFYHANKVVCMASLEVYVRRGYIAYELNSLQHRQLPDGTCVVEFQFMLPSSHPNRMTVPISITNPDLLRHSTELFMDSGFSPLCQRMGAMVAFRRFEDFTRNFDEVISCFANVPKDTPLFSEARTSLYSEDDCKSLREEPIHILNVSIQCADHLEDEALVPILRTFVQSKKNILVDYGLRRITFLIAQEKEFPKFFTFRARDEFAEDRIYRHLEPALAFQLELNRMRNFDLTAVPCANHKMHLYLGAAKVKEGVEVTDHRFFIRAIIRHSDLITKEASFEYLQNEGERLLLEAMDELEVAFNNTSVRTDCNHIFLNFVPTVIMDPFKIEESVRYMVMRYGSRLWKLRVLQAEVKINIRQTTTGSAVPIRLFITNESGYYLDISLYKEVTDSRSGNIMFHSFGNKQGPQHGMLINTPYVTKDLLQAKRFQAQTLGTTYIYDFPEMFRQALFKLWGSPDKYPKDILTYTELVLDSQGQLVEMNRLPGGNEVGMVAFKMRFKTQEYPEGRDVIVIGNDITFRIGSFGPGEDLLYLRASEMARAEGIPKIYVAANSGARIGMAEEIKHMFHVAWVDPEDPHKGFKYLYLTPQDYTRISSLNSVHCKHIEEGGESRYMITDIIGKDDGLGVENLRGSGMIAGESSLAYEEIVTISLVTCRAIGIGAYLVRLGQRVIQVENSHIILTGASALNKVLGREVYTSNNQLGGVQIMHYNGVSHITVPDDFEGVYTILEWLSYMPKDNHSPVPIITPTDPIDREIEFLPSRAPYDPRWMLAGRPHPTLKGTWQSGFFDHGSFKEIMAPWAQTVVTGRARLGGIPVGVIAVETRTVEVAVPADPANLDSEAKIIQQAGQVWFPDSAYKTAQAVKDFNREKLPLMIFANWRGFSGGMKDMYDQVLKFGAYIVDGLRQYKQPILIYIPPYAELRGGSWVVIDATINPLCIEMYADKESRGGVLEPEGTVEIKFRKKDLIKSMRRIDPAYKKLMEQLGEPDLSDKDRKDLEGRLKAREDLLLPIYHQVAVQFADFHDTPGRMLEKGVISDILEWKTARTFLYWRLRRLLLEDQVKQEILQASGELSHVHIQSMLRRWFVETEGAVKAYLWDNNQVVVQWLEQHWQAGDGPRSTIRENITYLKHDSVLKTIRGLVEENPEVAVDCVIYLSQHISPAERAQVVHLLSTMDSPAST
assay.protocol: Measurement of inhibitory activity on human ACC2 (MALDI-TOF MS, acetyl CoA to malonyl CoA conversion)
Format: biochemical
condition: inhibition activity on human ACC2, untitled table (Table 81); read-out: IC50
pIC50: −log10 of the molar value.
measurement.name: pIC50

{"structure.as.smiles": "CC(=O)N[C@@H](C)/C=C/c1ccc(Oc2ccc(OCCO)cc2Cl)nc1", "target.desc": "recombinant human ACC2 (Homo sapiens)", "measured.result": 5.85}
{"structure.as.smiles": "CC(=O)N[C@@H](C)/C=C/c1ccc(Oc2ccc(F)c(OC(C)C)c2)nc1", "target.desc": "recombinant human ACC2 (Homo sapiens)", "measured.result": 6.89}
{"structure.as.smiles": "CCNC(=O)c1cc(C(=O)N[C@@H](C)/C=C/c2cnn(Cc3ccc(Cl)c(Cl)c3)c2)ccn1", "target.desc": "recombinant human ACC2 (Homo sapiens)", "measured.result": 5.89}
